- Experimental target: T1, C. crescentus ClpS residues 35-119 (Caulobacter crescentus, UniProt Q9A5I0 35-119)
- T1 sequence (looked up): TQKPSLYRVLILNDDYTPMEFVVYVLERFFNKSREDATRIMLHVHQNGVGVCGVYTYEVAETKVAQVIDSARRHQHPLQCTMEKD
- Assay overview: fluorescence polarisation
No end group written: not given here.
Assay metric: Kd

# Binder, Assay result
data = [
    ("YLFVQYHHHHHHC(fluorescein maleimide) [fluorescein-labelled N-end rule peptide Tyr-Leu-Phe-Val-Gln-Tyr-His6-Cys]", "~400 nM"),
]
